subject of test: human Y2 receptor (human) (UniProt P49146)
Sequence (P49146 whole entry): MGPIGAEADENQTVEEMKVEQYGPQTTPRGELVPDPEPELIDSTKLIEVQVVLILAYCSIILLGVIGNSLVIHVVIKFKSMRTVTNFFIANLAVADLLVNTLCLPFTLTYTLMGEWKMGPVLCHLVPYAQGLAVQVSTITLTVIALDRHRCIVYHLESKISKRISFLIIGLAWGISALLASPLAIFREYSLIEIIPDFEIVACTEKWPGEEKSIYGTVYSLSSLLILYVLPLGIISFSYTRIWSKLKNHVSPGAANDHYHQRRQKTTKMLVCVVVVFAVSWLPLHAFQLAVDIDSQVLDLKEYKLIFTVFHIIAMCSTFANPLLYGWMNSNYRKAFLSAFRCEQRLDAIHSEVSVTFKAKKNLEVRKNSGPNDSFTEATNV
assay protocol: cell-based or functional assay
Non-standard residues stand in square brackets, D forms with d. *: point of attachment. X4 = ((1S)-1-Carboxy-3-methylbutyl)carbamoyl, CC(C)C[C@H](NC(=O)*)C(=O)O; tBuAla = CC(C)(C)C[C@H](N)C(=O)O; 4Pal = N[C@@H](Cc1ccncc1)C(=O)O; dHyp = O=C(O)[C@H]1C[C@H](O)CN1; Cha = N[C@@H](CC1CCCCC1)C(=O)O; Isobutyryl = CC(C)C(=O)*; Iva = CC[C@](C)(N)C(=O)O; Aib = CC(C)(N)C(=O)O; βAla = NCCC(=O)O
observation type: GBA EC50 Ratio ([35S]GTPγS binding) (EC50 compound/EC50 PYY(3-36))
Give bare numbers.

Completed entries (count: 2):
Ac-S[dP][Iva]H[Cha][Aib]NK[Aib]TRQR[Cha]-NH2 (SMILES CC[C@](C)(NC(=O)[C@H]1CCCN1C(=O)[C@H](CO)NC(C)=O)C(=O)N[C@@H](Cc1c[nH]cn1)C(=O)N[C@@H](CC1CCCCC1)C(=O)NC(C)(C)C(=O)N[C@@H](CC(N)=O)C(=O)N[C@@H](CCCCN)C(=O)NC(C)(C)C(=O)N[C@H](C(=O)N[C@@H](CCCNC(=N)N)C(=O)N[C@@H](CCC(N)=O)C(=O)N[C@@H](CCCNC(=N)N)C(=O)N[C@@H](CC1CCCCC1)C(N)=O)[C@@H](C)O) [Ac-[D-Pro24, Iva25, Cha27,36, Aib28,31, Lys30]-PYY(23-36)]: 5.2
Ac-S[Aib]R[4Pal][Cha][Aib]NK[Aib]TRQR[Cha]-NH2 (SMILES CC(=O)N[C@@H](CO)C(=O)NC(C)(C)C(=O)N[C@@H](CCCNC(=N)N)C(=O)N[C@@H](Cc1ccncc1)C(=O)N[C@@H](CC1CCCCC1)C(=O)NC(C)(C)C(=O)N[C@@H](CC(N)=O)C(=O)N[C@@H](CCCCN)C(=O)NC(C)(C)C(=O)N[C@H](C(=O)N[C@@H](CCCNC(=N)N)C(=O)N[C@@H](CCC(N)=O)C(=O)N[C@@H](CCCNC(=N)N)C(=O)N[C@@H](CC1CCCCC1)C(N)=O)[C@@H](C)O) [Ac-[Aib24,28,31, Pya(4)26, Cha27,36, Lys30]-PYY(23-36)]: 1.1

Hi team, please reply with GBA EC50 Ratio ([35S]GTPγS binding) (EC50 compound/EC50 PYY(3-36)) for each item in this list.
1. Isobutyryl-E[dP]R[4Pal][Cha][Aib]NK[Aib]TRQR[Cha]-NH2 (SMILES CC(C)C(=O)N[C@@H](CCC(=O)O)C(=O)N1CCC[C@@H]1C(=O)N[C@@H](CCCNC(=N)N)C(=O)N[C@@H](Cc1ccncc1)C(=O)N[C@@H](CC1CCCCC1)C(=O)NC(C)(C)C(=O)N[C@@H](CC(N)=O)C(=O)N[C@@H](CCCCN)C(=O)NC(C)(C)C(=O)N[C@H](C(=O)N[C@@H](CCCNC(=N)N)C(=O)N[C@@H](CCC(N)=O)C(=O)N[C@@H](CCCNC(=N)N)C(=O)N[C@@H](CC1CCCCC1)C(N)=O)[C@@H](C)O) [Isobutanoyl-[Glu23, D-Pro24, Pya(4)26, Cha27,36, Aib28,31, Lys30]-PYY(23-36)]
2. Ac-FS[dP]R[4Pal][Cha][Aib]NK[Aib]TRQR[Cha]-NH2 (SMILES CC(=O)N[C@@H](Cc1ccccc1)C(=O)N[C@@H](CO)C(=O)N1CCC[C@@H]1C(=O)N[C@@H](CCCNC(=N)N)C(=O)N[C@@H](Cc1ccncc1)C(=O)N[C@@H](CC1CCCCC1)C(=O)NC(C)(C)C(=O)N[C@@H](CC(N)=O)C(=O)N[C@@H](CCCCN)C(=O)NC(C)(C)C(=O)N[C@H](C(=O)N[C@@H](CCCNC(=N)N)C(=O)N[C@@H](CCC(N)=O)C(=O)N[C@@H](CCCNC(=N)N)C(=O)N[C@@H](CC1CCCCC1)C(N)=O)[C@@H](C)O) [Ac-[Phe22, D-Pro24, Pya(4)26, Cha27,36, Aib28,31, Lys30]-PYY(22-36)]
3. X4-E[dP]R[4Pal][Cha][Aib]NK[Aib]TRQR[Cha]-NH2 (SMILES CC(C)C[C@H](NC(=O)N[C@@H](CCC(=O)O)C(=O)N1CCC[C@@H]1C(=O)N[C@@H](CCCNC(=N)N)C(=O)N[C@@H](Cc1ccncc1)C(=O)N[C@@H](CC1CCCCC1)C(=O)NC(C)(C)C(=O)N[C@@H](CC(N)=O)C(=O)N[C@@H](CCCCN)C(=O)NC(C)(C)C(=O)N[C@H](C(=O)N[C@@H](CCCNC(=N)N)C(=O)N[C@@H](CCC(N)=O)C(=O)N[C@@H](CCCNC(=N)N)C(=O)N[C@@H](CC1CCCCC1)C(N)=O)[C@@H](C)O)C(=O)O)

1. 2
2. 0.89
3. 2.5

Hi team, please reply with GBA EC50 Ratio ([35S]GTPγS binding) (EC50 compound/EC50 PYY(3-36)) for each item in this list.
1. Ac-S[dHyp]RH[Cha][tBuAla]NK[Aib]TRQR[Cha]-NH2 (SMILES CC(=O)N[C@@H](CO)C(=O)N1C[C@@H](O)C[C@@H]1C(=O)N[C@@H](CCCNC(=N)N)C(=O)N[C@@H](Cc1c[nH]cn1)C(=O)N[C@@H](CC1CCCCC1)C(=O)N[C@@H](CC(C)(C)C)C(=O)N[C@@H](CC(N)=O)C(=O)N[C@@H](CCCCN)C(=O)NC(C)(C)C(=O)N[C@H](C(=O)N[C@@H](CCCNC(=N)N)C(=O)N[C@@H](CCC(N)=O)C(=O)N[C@@H](CCCNC(=N)N)C(=O)N[C@@H](CC1CCCCC1)C(N)=O)[C@@H](C)O) [Ac-[D-Hyp24, Cha27,36, Leu(Me)28, Lys30, Aib31]-PYY(23-36)]
2. Ac-S[βAla]R[4Pal][Cha][Aib]NK[Aib]TRQR[Cha]-NH2 (SMILES CC(=O)N[C@@H](CO)C(=O)NCCC(=O)N[C@@H](CCCNC(=N)N)C(=O)N[C@@H](Cc1ccncc1)C(=O)N[C@@H](CC1CCCCC1)C(=O)NC(C)(C)C(=O)N[C@@H](CC(N)=O)C(=O)N[C@@H](CCCCN)C(=O)NC(C)(C)C(=O)N[C@H](C(=O)N[C@@H](CCCNC(=N)N)C(=O)N[C@@H](CCC(N)=O)C(=O)N[C@@H](CCCNC(=N)N)C(=O)N[C@@H](CC1CCCCC1)C(N)=O)[C@@H](C)O) [Ac-[βAla24, Pya(4)26, Cha27,36, Aib28,31, Lys30]-PYY(23-36)]

1: 0.76; 2: 1.1
